Each item that follows carries a reported melting point.

| Molecule | melting point |
| --- | --- |
| O=C(Nc1ccon1)c1cnc(C(c2cc(F)ccc2F)S(=O)(=O)c2ccc(Cl)cc2)c(F)c1 (centres unmarked) | 200 to 202 °C |
| CC(C)(C)OC(=O)N1CCC(C(c2cc(F)ccc2F)S(=O)(=O)c2ccc(Cl)cc2)CC1 (centres unmarked) | 193 to 196 °C |
| Fc1ccc(F)c(C(Sc2ccc(Cl)cc2)c2ccncc2Cl)c1 (centres unmarked) | 70 to 72 °C |
| CS(=O)(=O)N(N)c1cc(C(c2cc(F)ccc2F)S(=O)(=O)c2ccc(Cl)cc2)c(Cl)cn1 (centres unmarked) | 152 to 154 °C |
| Cc1cnc(N)cc1C(c1cc(F)ccc1F)S(=O)(=O)c1ccc(Cl)cc1 (centres unmarked) | 188 to 189 °C |

Consider now this further molecule.
Q. Given the entry Nc1cc(C(c2cc(F)ccc2F)S(=O)(=O)c2ccc(Cl)s2)c(Cl)cn1 (centres unmarked) , report its measured melting point.
A. 170 to 171 °C
